target: Human CGRP1 Receptor (Homo sapiens, UniProt O60894+Q16602); construct: endogenous in cells; host or cells: SK-N-MC cells (membrane homogenate); assay: CGRP Binding Assay ([125I]-CGRP radioligand displacement, SK-N-MC membrane homogenate); conditions: [125I]-CGRP displacement, SK-N-MC homogenate, room temperature 2 h; read-out: Human CGRP1 Receptor IC50
Sequence (Q16602 23-461): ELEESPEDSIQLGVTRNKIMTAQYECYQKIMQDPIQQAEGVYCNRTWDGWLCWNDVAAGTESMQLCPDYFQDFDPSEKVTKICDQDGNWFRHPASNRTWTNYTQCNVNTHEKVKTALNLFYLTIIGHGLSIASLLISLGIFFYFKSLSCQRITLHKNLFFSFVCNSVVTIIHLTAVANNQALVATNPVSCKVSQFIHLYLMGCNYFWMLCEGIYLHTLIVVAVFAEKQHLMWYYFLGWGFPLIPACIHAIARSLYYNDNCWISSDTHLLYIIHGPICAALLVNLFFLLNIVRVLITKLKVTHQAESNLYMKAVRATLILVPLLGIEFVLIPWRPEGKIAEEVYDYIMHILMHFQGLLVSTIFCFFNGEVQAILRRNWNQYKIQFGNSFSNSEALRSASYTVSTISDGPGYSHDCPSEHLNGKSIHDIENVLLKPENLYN
Sequence (O60894 27-148): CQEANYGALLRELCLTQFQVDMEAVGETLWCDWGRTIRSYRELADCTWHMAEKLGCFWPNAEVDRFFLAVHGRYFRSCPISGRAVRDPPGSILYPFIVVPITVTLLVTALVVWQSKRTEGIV
pIC50: −log10 of the molar value.
pIC50 values by entry

>>> df
                                   compound  measurement_name        result
0  Cc1cc(CC(OC(=O)N2CCC(N3Cc4ccccc4NC3=O)CC2)c2ccncc2)cc2cn[nH]c12 (stereo not shown) [Example 57]             pIC50  6.00 to 7.00
1  Cc1cc(CC(NC(=O)N2CCC(N3Cc4ccccc4NC3=O)CC2)c2ccccn2)cc2cn[nH]c12 (racemic) [Example 31]             pIC50        > 8.00
2  Cc1cc(CC(NC(=O)N2CCC(N3Cc4ccccc4NC3=O)CC2)c2nccn2Cc2ccncc2)cc2cn[nH]c12 (racemic) [Example 73]             pIC50        > 8.00
3  CCc1ccnc(C(CC(=O)N2CCC(N3Cc4ccccc4NC3=O)CC2)Cc2cc(C)c3[nH]ncc3c2)c1 (racemic) [Example 22]             pIC50  7.00 to 8.00
4  Cc1cc(CC(OC(=O)N2CCC(N3Cc4cccc(F)c4NC3=O)CC2)c2cccc(Br)n2)cc2cn[nH]c12 (racemic) [Example 39]             pIC50        > 8.00

// recorded pIC50 for Cc1cc(CC(NC(=O)N2CCC(N3Cc4cccc(F)c4NC3=O)CC2)c2cc3ccccc3cn2)cc2cn[nH]c12 (stereo not shown) [Example 51] : > 8.00

pIC50 measured on Cc1cc(CC(OC(=O)N2CCC(N3Cc4cccc(F)c4NC3=O)CC2)c2ccco2)cc2cn[nH]c12 (stereo not shown) [Example 60] = 7.00 to 8.00

* * *

target: Human CGRP1 Receptor (Homo sapiens, UniProt O60894+Q16602); construct: endogenous in cells; host or cells: SK-N-MC cells (membrane homogenate); experiment: CGRP Binding Assay ([125I]-CGRP radioligand displacement, SK-N-MC membrane homogenate); details: [125I]-CGRP displacement, SK-N-MC homogenate, room temperature 2 h; read-out: Human CGRP1 Receptor IC50
pIC50: −log10 of the molar value.
Listing of recorded pIC50 by entry.

                                   molecule  measurement_name        result
0  Cc1cc(CC(NC(=O)N2CCC(N3Cc4ccccc4NC3=O)CC2)c2cccc(-c3ccccc3)n2)cc2cn[nH]c12 (racemic) [Example 37]             pIC50  7.00 to 8.00
1  Cc1cc(CC(NC(=O)N2CCC(c3cc4ccccc4[nH]c3=O)CC2)c2cc3ccccc3cn2)cc2cn[nH]c12 (stereo not shown) [Example 36]             pIC50        > 8.00
2  CCc1cc(CC(NC(=O)N2CCC(N3Cc4ccccc4NC3=O)CC2)c2nnnn2CC(=O)c2ccccc2)cc2c(C)n[nH]c12 (racemic) [Example 21]             pIC50  7.00 to 8.00
3  CC1=CC(CC(CC(=O)N2CCC(N3Cc4ccccc4NC3=O)CC2)c2nccn2Cc2ccncc2)=CC2C=NNC12 (stereo not shown) [Example 97]             pIC50        > 8.00
4  Cc1cc(C[C@@H](OC(=O)N2CCC(N3Cc4ccccc4NC3=O)CC2)c2nc(-c3ccncc3)no2)cc2cn[nH]c12 [Example 101]             pIC50  7.00 to 8.00

Quick note, pIC50 for CC1=CC(CC(CC(=O)N2CCC(N3Cc4ccccc4NC3=O)CC2)c2nccn2Cc2ccc(C(C)(C)C)cc2)=CC2C=NNC12 (stereo not shown) [Example 95] landed at > 8.00
